Data credit: patent US20250177383A1

procedure_details: Microsomal stability, rat liver microsomes
Format: in vitro ADME
protocol_conditions: SD rat liver microsomes 0.5 mg protein/mL, 1 μM test compound, NADPH, 37° C., 60 min; read-out: RLM Clint
measured_quantity: microsomal CLint at 1 μM

Guide cases for microsomal CLint at 1 μM, answers given:
Input line: May I ask what microsomal CLint at 1 μM has been recorded for CCC(=O)N[C@@H](C(=O)N1C[C@@H](C)N(C)C[C@H]1C)[C@@H](C)c1ccc(NC(=O)[C@@H](NC(=O)c2ccnn2CC)[C@H]2CC[C@H](C)CC2)c(F)c1 [A, reference compound] ?
Output line: > 20 µL/min/mg

Input line: For CCC(=O)N[C@@H](C(=O)N1CCN(C)[C@H](C)C1)[C@@H](C)c1ccc(NC(=O)[C@@H](NC(=O)C2(F)CC2)[C@H]2CC[C@H](C)CC2)c(F)c1 [H, reference compound] then?
Output line: 9.6 to 20 µL/min/mg

Next:
Input line: May I ask what microsomal CLint at 1 μM has been recorded for `CCC(=O)N[C@@H](C(=O)N1C[C@@H](C)N(C)C[C@H]1C)[C@@H](C)c1ccc(NC(=O)[C@@H](NC(=O)c2ccnn2CC)C(C2CC2)C2CC2)c(F)c1` ?
Output line: 9.6 to 20 µL/min/mg

Input line: For `CCC(=O)N[C@@H](C(=O)N1CCN(C)[C@@H](C)C1)[C@@H](C)c1ccc(NC(=O)[C@@H](NC(=O)c2ccnn2CC)C(C2CC2)C2CC2)c(F)c1` then?
Output line: < 9.6 µL/min/mg

Input line: For `CCC(=O)N[C@@H](C(=O)N1CCN(C)[C@H](C)C1)[C@@H](C)c1ccc(NC(=O)[C@@H](NC(=O)C2(F)CC2)C(C2CC2)C2CC2)c(F)c1` then?
Output line: < 9.6 µL/min/mg

Input line: For CCn1nccc1C(=O)N[C@H](C(=O)Nc1ccc([C@H](C)[C@@H](NC(=O)COC)C(=O)N2CCN(C)C(CF)C2)cc1F)C(C1CC1)C1CC1 (single isomer, unassigned) then?
Output line: < 9.6 µL/min/mg

Input line: For `CCC(=O)N[C@@H](C(=O)N1CCN(C)CC1)[C@@H](C)c1ccc(NC(=O)[C@@H](NC(=O)c2ccnn2C(C)C)C(C2CC2)C2CC2)c(F)c1` then?
Output line: < 9.6 µL/min/mg

Input line: For `CCn1nccc1C(=O)N[C@H](C(=O)Nc1ccc([C@H](C)[C@@H](NC(=O)COC)C(=O)N2CCN(C)[C@H](C)C2)cc1F)C(C1CC1)C1CC1` then?
Output line: < 9.6 µL/min/mg

Input line: For `CCn1nccc1C(=O)N[C@H](C(=O)Nc1ccc([C@H](C)[C@@H](NC(=O)N(C)C2CC2)C(=O)N2CCN(C)CC2)cc1F)C(C1CC1)C1CC1` then?
Output line: > 20 µL/min/mg

Input line: For CCC(=O)N[C@@H](C(=O)N1CCN(C)[C@H](C)C1)[C@@H](C)c1ccc(NC(=O)[C@@H](NC(=O)c2ccnn2CC(F)F)[C@H]2CC[C@H](C)CC2)c(F)c1 [E, reference compound] then?
Output line: 9.6 to 20 µL/min/mg

###

assayed_system: IL-17A/A (Homo sapiens)
Sequence (Q16552 24-155): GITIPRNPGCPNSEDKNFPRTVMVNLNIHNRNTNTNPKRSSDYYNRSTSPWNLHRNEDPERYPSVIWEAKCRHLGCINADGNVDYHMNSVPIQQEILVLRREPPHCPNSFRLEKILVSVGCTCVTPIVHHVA
procedure_details: IL-17A/A HEK-Blue Cell Assay
Assay type: cell-based
protocol_conditions: HEK-Blue IL-17 reporter cells, IL-17A/A stimulation, 20 hours, SEAP readout; read-out: IL17 AA HEK-5 pIC50 (converted)
Known IC50 of a selection of compounds

Input line: May I ask what IC50 has been recorded for CCC(OC)C(=O)N[C@@H](C(=O)N1CCN(C)CC1)[C@@H](C)c1ccc(NC(=O)[C@@H](NC(=O)c2ccnn2CC)C(C2CC2)C2CC2)c(F)c1 (single isomer, unassigned) [Compound 339] ?
Output line: 10 to 100 nM

Input line: For CCC(OC)C(=O)N[C@@H](C(=O)N1CCN(C)[C@H](C)C1)[C@@H](C)c1ccc(NC(=O)[C@@H](NC(=O)c2ccnn2CC)C(C2CC2)C2CC2)c(F)c1 (single isomer, unassigned) [Compound 335] then?
Output line: 10 to 100 nM

Input line: For CCn1nccc1C(=O)N[C@H](C(=O)Nc1ccc(C(C(NC(=O)[C@H](C)OC)C(=O)N2CCN(C)[C@H](C)C2)C(F)(F)F)cc1F)C(C1CC1)C1CC1 (single isomer, unassigned) [Compound 357] then?
Output line: 100 to 10000 nM

Input line: For CCC(=O)N[C@@H](C(=O)N1CCN(C)[C@H](C)C1)[C@@H](C)c1ccc(NC(=O)[C@@H](NC(=O)c2ccnn2C(C)C)C(C2CC2)C2CC2)c(F)c1 [Compound 258] then?
Output line: < 10 nM

Could you now look at the following compound, please?
Input line: May I ask what IC50 has been recorded for CCn1nccc1C(=O)N[C@H](C(=O)Nc1ccc([C@H](C)[C@@H](NC(=O)[C@H](C)OC)C(=O)N2C[C@H]3C[C@@H]2CN3C)cc1F)C(C1CC1)C1CC1 [Compound 256] ?
Output line: 10 to 100 nM
